tested on: Staphylococcus epidermidis; test: standard microtiter assay, minimum inhibitory concentration; assay type: cell-based; settings: Test Organism 13, strain of Staphylococcus epidermidis
For each of the compounds below, state its minimum inhibitory concentration of antibiotic, Test Organism 13.
Give just the number in mg/mL; leave the unit off.

CNC1C(=O)NC2C(=O)NC(C(=O)NC3C(=O)NC4C(=O)NC(C(=O)NC(C(N)=O)c5cc(O)cc(OC6OC(CO)C(O)C(O)C6O)c5-c5cc4ccc5O)C(O)c4ccc(c(Cl)c4)Oc4cc3cc(c4OC3OC(C(N)=O)C(O)C(O)C3NC(=O)CCCCCCCCC(C)C)Oc3ccc(cc3)C2O)c2cc(cc(O)c2Cl)Oc2cc1ccc2O (stereo not drawn) [Compound 2q, AAJ-271 C1 diamide] has a reported minimum inhibitory concentration of antibiotic, Test Organism 13 of 3.1

The measured minimum inhibitory concentration of antibiotic, Test Organism 13 associated with CCCCCCCCCC(=O)NC1C(Oc2c3cc4cc2Oc2c(Cl)cc(cc2Cl)C(O)C2NC(=O)C(NC(=O)C4NC(=O)C4NC(=O)C(NC(=O)C(NC)c5ccc(O)c(c5)Oc5cc(O)c(Cl)c4c5)C(O)c4ccc(c(Cl)c4)O3)c3ccc(O)c(c3)-c3c(OC4OC(CO)C(O)C(O)C4O)cc(O)cc3C(C(=O)NN)NC2=O)OC(C(=O)NN)C(O)C1O (stereo not drawn) [Compound 2k, Ardacin A dihydrazide] reads 3.1

The recorded minimum inhibitory concentration of antibiotic, Test Organism 13 for entry CNCCNC(=O)C1NC(=O)C2NC(=O)C(NC(=O)C3NC(=O)C4NC(=O)C(NC(=O)C(NC)c5ccc(O)c(c5)Oc5cc(O)c(Cl)c4c5)C(O)c4ccc(c(Cl)c4)Oc4cc3cc(c4O)Oc3c(Cl)cc(cc3Cl)C2O)c2ccc(O)c(c2)-c2c(O)cc(O)cc21 (stereo not drawn) [Compound 2f] equals 0.05

Measured minimum inhibitory concentration of antibiotic, Test Organism 13 of CCCCCCCCCC(=O)NC1C(Oc2c3cc4cc2Oc2c(Cl)cc(cc2Cl)C(O)C2NC(=O)C(NC(=O)C4NC(=O)C4NC(=O)C(NC(=O)C(NC)c5ccc(O)c(c5)Oc5cc(O)c(Cl)c4c5)C(O)c4ccc(c(Cl)c4)O3)c3ccc(O)c(c3)-c3c(OC4OC(CO)C(O)C(O)C4O)cc(O)cc3C(C(=O)NCCO)NC2=O)OC(C(=O)NCCO)C(O)C1O (stereo not drawn) [Compound 2l, Ardacin A-di-(2-hydroxyethyl amide)] : 0.2

The recorded minimum inhibitory concentration of antibiotic, Test Organism 13 for entry CCCCCCCCCC(=O)NC1C(Oc2c3cc4cc2Oc2c(Cl)cc(cc2Cl)C(O)C2NC(=O)C(NC(=O)C4NC(=O)C4NC(=O)C(NC(=O)C(NC)c5ccc(O)c(c5)Oc5cc(O)c(Cl)c4c5)C(O)c4ccc(c(Cl)c4)O3)c3ccc(O)c(c3)-c3c(OC4OC(CO)C(O)C(O)C4O)cc(O)cc3C(C(=O)NCCN)NC2=O)OC(C(=O)NCCN)C(O)C1O (stereo not drawn) [Compound 2m, Ardacin A-di-(2-aminoethylamide)] equals 0.2

Record CNC1C(=O)NC2C(=O)NC(C(=O)NC3C(=O)NC4C(=O)NC(C(=O)NC(C(=O)NCCN)c5cc(O)cc(OC6OC(CO)C(O)C(O)C6O)c5-c5cc4ccc5O)C(O)c4cc(Cl)c(c(Cl)c4)Oc4cc3cc(c4O)Oc3ccc(cc3Cl)C2O)c2cc(cc(O)c2Cl)Oc2cc1ccc2O (stereo not drawn) [Compound 2o] , field minimum inhibitory concentration of antibiotic, Test Organism 13: 0.1
